System tested: Microphthalmia-associated transcription factor (Homo sapiens)
Sequence (O75030 whole entry): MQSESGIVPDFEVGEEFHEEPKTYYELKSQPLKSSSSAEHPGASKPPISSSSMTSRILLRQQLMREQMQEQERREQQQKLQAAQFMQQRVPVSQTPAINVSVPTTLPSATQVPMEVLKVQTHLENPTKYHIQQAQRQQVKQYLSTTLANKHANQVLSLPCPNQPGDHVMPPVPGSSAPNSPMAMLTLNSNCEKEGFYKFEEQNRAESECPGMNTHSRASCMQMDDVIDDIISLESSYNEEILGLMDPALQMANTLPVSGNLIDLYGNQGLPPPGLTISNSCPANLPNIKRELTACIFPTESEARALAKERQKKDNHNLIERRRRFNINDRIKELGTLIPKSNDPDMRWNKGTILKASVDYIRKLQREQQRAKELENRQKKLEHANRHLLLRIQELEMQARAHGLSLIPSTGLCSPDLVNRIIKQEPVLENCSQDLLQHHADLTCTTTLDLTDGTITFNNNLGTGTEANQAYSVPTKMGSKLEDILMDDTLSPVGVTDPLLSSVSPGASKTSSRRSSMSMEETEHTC
Assay info: reducers of TRPM1 reporter luminescence, concentration series – cell-based, SK-MEL-5, cherry-picked, set 3, MITF inhibitor project, dose response (AID 493073);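 further: SK-MEL-5 melanoma cells with luciferase driven by the MITF target TRPM1 promoter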
Type: functional
Active and inactive are the calls of the source.
Quantity: AC50

Below, 2 compounds whose answers are already recorded.
Compound: C=CCNC1=NN=C(c2ccc3c(c2)OCCO3)CS1
AC50: 3.37 µM (active)
//
Compound: CN(CCC#N)C(=O)COC(=O)c1ccccc1C(=O)c1ccc(Cl)c([N+](=O)[O-])c1
AC50: 10.9 µM (active)

Exercise: State the recorded AC50 for this entry: CC1(C)CC(=O)C=C(NC2=CC3OC(c4ccccc4)OCC3OC2=O)C1 (stereo unspecified)
Key: 7.71 µM (active)

Exercise: State the recorded AC50 for this entry: COc1cc2c(cc1OC)C(c1ccccc1)N(C(=O)CCl)CC2 (stereo unspecified)
Key: 5.36 µM (active)

Exercise: State the recorded AC50 for this entry: `O=C(NC1=C(Nc2ccc(Cl)cc2)C(=O)c2ccccc2C1=O)c1ccccc1`
Key: 0.93 µM (active)

Exercise: State the recorded AC50 for this entry: O=[N+]([O-])c1ccc(S(=O)(=O)CC(CN2CCCCC2)N2CCCCC2)cc1 (stereo unspecified)
Key: 4.88 µM (active)

* * *

System tested: Sentrin-specific protease 7 (Homo sapiens);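 further: Luminescence-based dose-response confirmation of ultra-high-throughput screening hits, measuring inhibition of SENP7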
Sequence (Q9BQF6 whole entry): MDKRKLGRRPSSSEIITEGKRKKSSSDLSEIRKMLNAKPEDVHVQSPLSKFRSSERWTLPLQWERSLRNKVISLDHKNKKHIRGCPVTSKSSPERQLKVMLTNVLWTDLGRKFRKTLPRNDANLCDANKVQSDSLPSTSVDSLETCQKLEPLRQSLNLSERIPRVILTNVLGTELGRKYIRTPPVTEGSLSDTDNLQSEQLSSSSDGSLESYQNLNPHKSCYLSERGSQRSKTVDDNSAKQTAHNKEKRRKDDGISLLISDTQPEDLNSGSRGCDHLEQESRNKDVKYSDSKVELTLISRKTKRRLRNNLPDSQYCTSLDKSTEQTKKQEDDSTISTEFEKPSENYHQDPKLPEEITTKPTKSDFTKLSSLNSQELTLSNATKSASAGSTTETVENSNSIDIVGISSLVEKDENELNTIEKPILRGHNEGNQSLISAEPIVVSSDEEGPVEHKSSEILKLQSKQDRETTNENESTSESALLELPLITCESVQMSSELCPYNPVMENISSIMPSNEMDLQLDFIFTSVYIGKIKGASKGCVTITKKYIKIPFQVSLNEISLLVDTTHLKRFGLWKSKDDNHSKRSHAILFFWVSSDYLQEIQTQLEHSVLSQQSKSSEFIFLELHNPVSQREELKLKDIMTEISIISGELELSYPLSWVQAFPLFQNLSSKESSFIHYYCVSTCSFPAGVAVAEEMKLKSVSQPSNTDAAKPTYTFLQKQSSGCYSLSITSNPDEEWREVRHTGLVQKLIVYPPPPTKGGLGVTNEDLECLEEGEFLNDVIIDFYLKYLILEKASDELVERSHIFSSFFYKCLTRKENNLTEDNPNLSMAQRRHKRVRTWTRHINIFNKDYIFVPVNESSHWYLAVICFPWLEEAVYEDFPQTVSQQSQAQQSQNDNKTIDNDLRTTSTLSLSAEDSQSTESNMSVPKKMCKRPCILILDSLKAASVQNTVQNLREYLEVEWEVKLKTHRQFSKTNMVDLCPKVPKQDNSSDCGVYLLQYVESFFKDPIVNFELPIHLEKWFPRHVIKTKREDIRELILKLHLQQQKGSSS
Type: functional
Calls of active or inactive are those of the source.
Reported values of IC50 for individual entries

Molecule: c1ccc(N2CC3CCc4ccccc4C3=N2)cc1 (stereo unspecified)
Reported result: 5.67 µM (active)

Exercise: State the recorded IC50 for this entry: `O=C1CN(C(=O)COC(=O)c2ccc([N+](=O)[O-])s2)c2ccccc2N1`
Key: 92 µM (active)

Exercise: State the recorded IC50 for this entry: `COc1ccc(NC(=O)c2cccc(Oc3ccccc3)c2)cn1`
Key: 4.98 µM (active)

Exercise: State the recorded IC50 for this entry: `Cc1cccc(NC(=O)COc2ccc(Br)cc2C)n1`
Key: 4.31 µM (active)

Exercise: State the recorded IC50 for this entry: `Nc1cc(Cl)nc(N/N=C/c2c(O)ccc3ccccc23)n1`
Key: 5.83 µM (active)

Exercise: State the recorded IC50 for this entry: `Cn1c(C(=O)Nc2ccc3c(c2)OCO3)cc2sccc21`
Key: 4.52 µM (active)

* * *

System tested: Cytochrome P450 2D6 (Homo sapiens)
Sequence (P10635 whole entry): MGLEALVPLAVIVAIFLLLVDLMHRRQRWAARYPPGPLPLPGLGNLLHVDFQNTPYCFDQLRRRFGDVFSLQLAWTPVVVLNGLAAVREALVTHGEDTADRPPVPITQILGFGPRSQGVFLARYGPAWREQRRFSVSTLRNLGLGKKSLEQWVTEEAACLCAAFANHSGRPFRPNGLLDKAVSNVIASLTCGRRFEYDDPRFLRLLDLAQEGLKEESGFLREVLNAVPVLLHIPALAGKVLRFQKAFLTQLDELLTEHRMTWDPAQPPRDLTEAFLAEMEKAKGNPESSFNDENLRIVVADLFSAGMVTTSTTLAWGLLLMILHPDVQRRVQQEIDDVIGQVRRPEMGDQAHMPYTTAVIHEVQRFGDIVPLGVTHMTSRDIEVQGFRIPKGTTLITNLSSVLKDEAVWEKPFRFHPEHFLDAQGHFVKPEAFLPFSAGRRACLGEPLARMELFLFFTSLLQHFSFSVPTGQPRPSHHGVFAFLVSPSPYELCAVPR
Quantity: AC50

Compound: COc1ccccc1OCCOc1ccc(/C=C2/C(=N)N3OC(C)=CC3=NC2=O)cc1OC
System tested: Cytochrome P450 2D6 (Homo sapiens)
Quantity: AC50
Reported result: 6.31 µM (inconclusive)
--
Compound: CC(C)C(=O)NCCCc1ccccc1
System tested: Cytochrome P450 2D6 (Homo sapiens)
Quantity: AC50
Reported result: 20 µM (inconclusive)
--
Compound: COc1ccc2[nH]c(-c3ccccc3)c(CCNC(C)=O)c2c1
System tested: Cytochrome P450 2D6 (Homo sapiens)
Quantity: AC50
Reported result: 25.1 µM (inconclusive)
--
Compound: Clc1ccc(COc2ccccn2)cc1Cl
System tested: Cytochrome P450 2D6 (Homo sapiens)
Quantity: AC50
Reported result: 11.2 µM (inconclusive)
--
Compound: c1ccc(CN2c3ccccc3-c3nc4ccccc4n3C2c2ccccn2)cc1 (stereo not given)
System tested: Cytochrome P450 2D6 (Homo sapiens);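 further: CYP2D6 member of a cytochrome P450 panel assay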
Quantity: AC50
Reported result: 15.8 µM (inconclusive)

Below: the item to evaluate.
Exercise: State the recorded AC50 for this entry: `O=C(CN1CCN(c2ccc(Cl)cc2)CC1)Nc1cccc(F)c1`
Key: 1.41 µM (inconclusive)

* * *

System tested: Induced myeloid leukemia cell differentiation protein Mcl-1 (Homo sapiens, UniProt Q07820)
Sequence (Q07820 whole entry): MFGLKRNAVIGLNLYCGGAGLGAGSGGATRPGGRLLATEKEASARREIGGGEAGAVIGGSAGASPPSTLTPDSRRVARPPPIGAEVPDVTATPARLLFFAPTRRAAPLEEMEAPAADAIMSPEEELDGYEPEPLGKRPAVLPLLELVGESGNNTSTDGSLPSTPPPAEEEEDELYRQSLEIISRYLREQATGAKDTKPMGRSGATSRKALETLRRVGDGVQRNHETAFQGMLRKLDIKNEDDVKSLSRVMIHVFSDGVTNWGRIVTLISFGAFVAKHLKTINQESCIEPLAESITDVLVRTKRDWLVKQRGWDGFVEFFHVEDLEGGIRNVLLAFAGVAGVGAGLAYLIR
Type: functional
Calls of active or inactive are those of the source.
Quantity: IC50

Compound: COc1ccc(C2=CC(=O)C=CC2=O)cc1
Reported result: 5.43 µM (active)

Compound: O=C(OCC1O[C@@H](OC(=O)c2cc(O)c(O)c(O)c2)[C@@H](OC(=O)c2cc(O)c(O)c(O)c2)[C@@H](OC(=O)c2cc(O)c(O)c(O)c2)[C@@H]1OC(=O)c1cc(O)c(O)c(O)c1)c1cc(O)c(O)c(O)c1 (stereo partly specified)
Reported result: 4.54 µM (active)

Compound: O=C(N/N=C\C=C\c1ccco1)c1cc(-c2ccc3ccccc3c2)[nH]n1
Reported result: 3.98 µM (active)

Compound: CCc1nnc(S)n1/N=C/c1cc(OC)cc([N+](=O)[O-])c1O
Reported result: 12.4 µM (active)

Compound: Cc1ccc(S(=O)(=O)/N=C2/C=C(C3C(=O)CC(C)(C)CC3=O)C(=O)c3ccccc32)cc1
Reported result: 2.13 µM (active)

Below: the item to evaluate.
Exercise: State the recorded IC50 for this entry: `Cc1ccc(-c2cc(C(=O)O)c3cc(Br)ccc3n2)o1`
Key: 2.98 µM (active)

* * *

System tested: Protein skinhead-1 (Caenorhabditis elegans, UniProt P34707)
Sequence (P34707 whole entry): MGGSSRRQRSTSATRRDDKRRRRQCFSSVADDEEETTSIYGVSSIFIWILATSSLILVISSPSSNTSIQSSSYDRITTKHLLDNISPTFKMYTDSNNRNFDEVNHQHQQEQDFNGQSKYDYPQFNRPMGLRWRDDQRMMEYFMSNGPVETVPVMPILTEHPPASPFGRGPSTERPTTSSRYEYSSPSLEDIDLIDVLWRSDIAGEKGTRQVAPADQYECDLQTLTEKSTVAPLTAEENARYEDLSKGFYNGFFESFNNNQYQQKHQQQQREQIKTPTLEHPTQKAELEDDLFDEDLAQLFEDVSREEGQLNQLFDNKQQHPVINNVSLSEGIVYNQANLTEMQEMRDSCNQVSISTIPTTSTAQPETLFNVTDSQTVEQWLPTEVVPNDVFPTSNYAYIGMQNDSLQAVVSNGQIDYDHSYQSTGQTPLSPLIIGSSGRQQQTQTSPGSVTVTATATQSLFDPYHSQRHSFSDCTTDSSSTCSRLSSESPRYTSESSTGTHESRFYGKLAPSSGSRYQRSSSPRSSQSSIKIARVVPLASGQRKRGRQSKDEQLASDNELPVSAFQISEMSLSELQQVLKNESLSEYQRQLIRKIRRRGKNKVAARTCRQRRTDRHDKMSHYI
Assay type: functional
The source made the active and inactive calls.
Quantity: IC50

Exercise: State the recorded IC50 for this entry: `COC(=O)c1nc(-c2ccccc2)oc1N(C)C`
Key: > 100 µM (inactive)

Exercise: State the recorded IC50 for this entry: `COc1cccc(C(=O)NCC(=O)N2CCC3(CC2)NCCc2[nH]cnc23)c1`
Key: > 100 µM (inactive)

Exercise: State the recorded IC50 for this entry: COc1cc2c(cc1OC)C(c1ccccc1)N(C(=O)CCl)CC2 (stereo not drawn)
Key: > 100 µM (inactive)

* * *

System: INS1
Assay info: INS-1E survival protection against cytokine death – cell-based, luminescence, retest, dose response (AID 449756);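 further: cell death triggered by IL-1 beta plus TNF-alpha plus IFN-gamma mixture; protective hits raise ATP signal compared with cytokine alone wells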
Format: functional
Assay context: Rattus norvegicus
The source made the active and inactive calls.
Quantity: AC50

Below, 5 molecules whose answers are already recorded.
Molecule: O=C(CN1CCCc2ccccc21)N/N=C/c1ccccc1O
AC50: 4.81 µM (active)
//
Molecule: COC(/C(=N/O)c1ccc(Cl)cc1)c1ccccc1 (stereo unspecified)
AC50: 2.72 µM (active)
//
Molecule: C=CCn1c(SCC(=O)c2[nH]c(C)c(C(=O)OCC)c2C)nc2scc(-c3ccc(OC)c(OC)c3)c2c1=O
AC50: 3.37 µM (active)
//
Molecule: O=C1c2ccccc2C2=Nc3ccccc3SC(c3ccc(Cl)cc3)C12 (stereo unspecified)
AC50: 14.1 µM (active)
//
Molecule: COc1ccc2nc(N=Nc3ccc(O)c4ccccc34)sc2c1
AC50: 2.09 µM (active)

Below: the item to evaluate.
Exercise: State the recorded AC50 for this entry: `Cc1ccc(NS(=O)(=O)c2ccc(NC(=O)CN(c3cc([N+](=O)[O-])ccc3C)S(C)(=O)=O)cc2)c(C)c1`
Key: 1.49 µM (active)

* * *

Tested on: H4
Assay info: Luminescence Cell-Based Dose Response HTS to Identify Activators of 5'UTR Stem-Loop Driven Prion Protein mRNA Translation in H4 Neuroglioblastoma Cells. [Related pubchem assays: 1829 (Project Summary), 1814 (Primary HTS)]
Type: functional
Assay context: Homo sapiens
Activity calls are given as the source filed them.
Quantity: EC50

Below, 3 compounds whose answers are already recorded.
Compound structure string: Cc1ccc(S(=O)(=O)/N=C2/C=C(C3C(=O)CC(C)(C)CC3=O)C(=O)c3ccccc32)cc1
Quantity: EC50
Reported result: 46.4 µM (active)

Compound structure string: C#CCSc1nnc(-c2ccc(OC)cc2)o1
Quantity: EC50
Reported result: > 120 µM (not active)

Compound structure string: O=C(Nc1ccccc1[N+](=O)[O-])c1ccc(S(=O)(=O)N2CCCC2)cc1
Quantity: EC50
Reported result: 14.6 µM (active)

Exercise: State the recorded EC50 for this entry: `[O-][n+]1onc2c3ccnnc3ccc21`
Key: > 120 µM (not active)

* * *

System tested: Large T antigen (Simian virus 40, UniProt P03070);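 further: Confirmatory-stage PubChem screen for compounds that inhibit SV40 T antigen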
Sequence (P03070 whole entry): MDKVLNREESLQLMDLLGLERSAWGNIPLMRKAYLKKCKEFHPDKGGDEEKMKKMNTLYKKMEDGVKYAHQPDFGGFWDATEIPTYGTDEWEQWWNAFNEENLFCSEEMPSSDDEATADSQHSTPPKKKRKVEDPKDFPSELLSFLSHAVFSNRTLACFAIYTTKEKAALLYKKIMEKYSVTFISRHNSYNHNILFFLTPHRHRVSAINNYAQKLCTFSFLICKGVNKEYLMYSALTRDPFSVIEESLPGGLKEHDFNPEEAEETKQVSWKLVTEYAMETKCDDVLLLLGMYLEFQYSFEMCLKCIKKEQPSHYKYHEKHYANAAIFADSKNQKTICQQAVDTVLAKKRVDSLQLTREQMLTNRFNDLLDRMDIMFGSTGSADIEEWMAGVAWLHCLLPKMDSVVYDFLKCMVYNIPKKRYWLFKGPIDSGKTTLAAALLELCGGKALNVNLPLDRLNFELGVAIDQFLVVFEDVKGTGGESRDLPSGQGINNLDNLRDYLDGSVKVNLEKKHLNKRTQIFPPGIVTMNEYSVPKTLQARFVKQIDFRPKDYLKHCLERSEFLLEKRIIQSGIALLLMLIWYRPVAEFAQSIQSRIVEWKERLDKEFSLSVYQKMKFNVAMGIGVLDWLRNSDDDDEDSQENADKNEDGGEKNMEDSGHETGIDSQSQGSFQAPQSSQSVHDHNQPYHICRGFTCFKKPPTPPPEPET
Type: functional, Betapolyomavirus macacae
Calls of active or inactive are those of the source.
Quantity: IC50

Below, 4 compounds whose answers are already recorded.
Compound: N#CC1=C(S)N(c2ccccc2)C(c2ccc(-c3ccc(Cl)c(Cl)c3)o2)NC1=O (configuration not stated)
Reported result: 62.7 µM (active)
//
Compound: C/C(CC(=O)Nc1ccc(N(C)C)cc1)=N\NC(=O)c1cnccn1
Reported result: 17.5 µM (active)
//
Compound: O=C(OCC1O[C@@H](OC(=O)c2cc(O)c(O)c(O)c2)[C@@H](OC(=O)c2cc(O)c(O)c(O)c2)[C@@H](OC(=O)c2cc(O)c(O)c(O)c2)[C@@H]1OC(=O)c1cc(O)c(O)c(O)c1)c1cc(O)c(O)c(O)c1 (some centres not stated)
Reported result: 4.51 µM (active)
//
Compound: O=C(O)c1ccc(COc2ccccc2C=C2C(=O)c3ccccc3C2=O)cc1
Reported result: 35.2 µM (active)

Exercise: What IC50 appears in the records for this compound with Large T antigen (Simian virus 40, UniProt P03070)? `CN(C)c1ccc(NC(=O)c2cccc(N3C(=O)CCC3=O)c2)cc1`
Key: 9.21 µM (active)

Exercise: What IC50 appears in the records for this compound with Large T antigen (Simian virus 40, UniProt P03070)? `Cc1csc(NC(=O)NC2(C(F)(F)F)Oc3ccccc3O2)n1`
Key: 13.3 µM (active)

Exercise: What IC50 appears in the records for this compound with Large T antigen (Simian virus 40, UniProt P03070)? `COCCCn1c(=O)c2ccccc2n2c(S)nnc12`
Key: 9.15 µM (active)
